target: alpha-thrombin (Homo sapiens) (UniProt P00734+P00734); assay: SPR; settings: DNA segments joined 3'-3' through hexaethylene glycol phosphodiester linker L1 (both segments given 5'-3'); apparent; solution competition vs immobilized consensus aptamer; same buffer, 25 C
Measure: pKd
// pKd is dimensionless: -log10 of concentration (M)

IN: Returns the measured pKd for the input sequence. Input: GGTTGGTTGGTTGGTT [Compound 6]
OUT: 8.00

---

target: alpha-thrombin (Homo sapiens) (UniProt P00734+P00734); test: SPR; details: hexaethylene glycol phosphodiester linker L1 between 3' end of first and 5' end of second segment (normal polarity); apparent; solution competition vs immobilized consensus aptamer; same buffer, 25 C
Measure: pKd
// pKd is dimensionless: -log10 of concentration (M)

IN: Returns the measured pKd for the input sequence. Input: GGTTGGGGTTGG [Compound 11 (uni-directional)]
OUT: 7.54

---

I'd appreciate it if you could supply pKd values for the items below.
biological target: alpha-thrombin (Homo sapiens) (UniProt P00734+P00734); assay: SPR; settings: DNA segments joined 3'-3' by a single phosphodiester (inverted polarity; second segment given 5'-3'); apparent; solution competition vs immobilized consensus aptamer; same buffer, 25 C
// pKd is dimensionless: -log10 of concentration (M)

IN: Returns the measured pKd for the input sequence. Input: GGTTGGTGGGTTGGT [Compound 1]
OUT: 6.65

IN: Returns the measured pKd for the input sequence. Input: GGTTGGTTGGTTGGTT [Compound 2]
OUT: 6.51

IN: Returns the measured pKd for the input sequence. Input: GGTTGGTTGGGTTGGTT [Compound 3]
OUT: 7.96

---

biological target: alpha-thrombin (Homo sapiens) (UniProt P00734+P00734); experiment: SPR; details: DNA segments joined 5'-5' by a single phosphodiester (inverted polarity; both segments given 5'-3'); apparent; solution competition vs immobilized consensus aptamer; same buffer, 25 C
Measure: pKd
// pKd is dimensionless: -log10 of concentration (M)

IN: Returns the measured pKd for the input sequence. Input: TTGGTTGGTTGGTTGG [Compound 4]
OUT: 7.60

// data source = patent US5668265
